Taken from patent US20200024330A1.

# target.system: HIV-1 MGRM-C-026 envelope glycoprotein (Env) (HIV-1)
# measurement.description: cell-based or functional assay

binder	IC50 neutralization, ng/mL
PGT-135 (antibody, V domains shown) VH: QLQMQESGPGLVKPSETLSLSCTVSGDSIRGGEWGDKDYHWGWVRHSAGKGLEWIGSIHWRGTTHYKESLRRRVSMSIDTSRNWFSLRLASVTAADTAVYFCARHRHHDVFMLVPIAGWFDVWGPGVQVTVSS VL: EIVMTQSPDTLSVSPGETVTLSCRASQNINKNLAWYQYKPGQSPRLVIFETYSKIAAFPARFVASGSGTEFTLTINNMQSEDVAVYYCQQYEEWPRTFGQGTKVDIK	12.3
PGT-126 (antibody, V domains shown) VH: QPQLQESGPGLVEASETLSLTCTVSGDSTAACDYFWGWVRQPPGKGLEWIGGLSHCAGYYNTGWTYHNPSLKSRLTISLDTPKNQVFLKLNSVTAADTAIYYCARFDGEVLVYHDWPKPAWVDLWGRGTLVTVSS VL: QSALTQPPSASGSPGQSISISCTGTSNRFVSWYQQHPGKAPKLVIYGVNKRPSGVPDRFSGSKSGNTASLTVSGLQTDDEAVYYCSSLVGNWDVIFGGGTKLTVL	7.6
